# Test system: SK-MEL-2
# experimental.protocol: Cytotoxicity against human SK-MEL-2 cells assessed as growth inhibition by SRB assay
# Type: functional, cell-based
IC50 by entry:
readout.label: IC50 (µM)

| compound | readout.label | comparison.sign | readout.value |
| --- | --- | --- | --- |
| CC(C)(O)[C@H](O)CC[C@@H](CO)[C@H]1CC[C@@]2(C)C3=C(C[C@H](O)[C@]12C)[C@@]1(C)C[C@@H](O)[C@H](O)C(C)(C)[C@@H]1CC3 | IC50 | = | 2.29 |
| COC(=O)CNC(=O)CC(C)(O)CC(=O)O[C@@H]1C[C@]2(C)C3=C(CC[C@H]2C(C)(C)[C@H]1O)[C@]1(C)CC[C@H]([C@H](C)CC[C@@H](O)C(C)(C)O)[C@@]1(C)[C@@H](O)C3 (stereo not given in full) | IC50 | = | 9.16 |
| CC(C)(O)[C@H](O)CC[C@@H](CO)[C@H]1CC[C@@]2(C)C3=C(CC(=O)[C@]12C)[C@@]1(C)C[C@@H](O)[C@H](O)C(C)(C)[C@@H]1CC3 | IC50 | > | 30 |
| C[C@H](CC[C@@H](O)C(C)(C)O)[C@H]1CC[C@@]2(C)C3=C(CC(=O)[C@]12C)[C@@]1(C)C[C@@H](O)[C@H](O)C(C)(C)[C@@H]1CC3 | IC50 | > | 30 |
| CC(C)(O)[C@H](O)CC[C@@H](CO)[C@H]1CC[C@]2(C)[C@]1(C)[C@@H](O)C=C1[C@]23O[C@H]3C[C@H]2C(C)(C)[C@@H](O)[C@H](O)C[C@]12C | IC50 | = | 8.26 |

* * *

# Tested on: SK-MEL-2
# experimental.protocol: Cytotoxicity against human SK-MEL-2 cells assessed as growth inhibition by SRB assay
# Assay type: functional, cell-based

| compound | measurement.target | IC50 [µM] |
| --- | --- | --- |
| CC(C)(O)[C@H](O)CC[C@@H](CO)[C@H]1CC[C@@]2(C)C3=C(C[C@H](O)[C@]12C)[C@@]1(C)C[C@@H](O)[C@H](O)C(C)(C)[C@@H]1CC3=O | SK-MEL-2 | 4.77 |
| COC(=O)CNC(=O)CC(C)(O)CC(=O)O[C@@H]1C[C@]2(C)C3=C(CC[C@H]2C(C)(C)[C@H]1O)[C@]1(C)CC[C@H]([C@H](CO)CC[C@@H](O)C(C)(C)O)[C@@]1(C)[C@@H](O)C3 (stereo partly specified) | SK-MEL-2 | 5.73 |
| COC(=O)CNC(=O)CC(C)(O)CC(=O)O[C@H]1[C@H](O)C[C@]2(C)C3=C(CC[C@H]2C1(C)C)[C@]1(C)CC[C@H]([C@H](C)CC[C@@H](O)C(C)(C)O)[C@@]1(C)[C@@H](O)C3 (stereo partly specified) | SK-MEL-2 | 8.6 |
| CC(C)(O)[C@H](O)CC[C@@H](CO)[C@H]1CC[C@@]2(C)C3=C(C[C@H](O)[C@]12C)[C@@]1(C)C[C@@H](OC(=O)C[C@@](C)(O)CC(=O)O)[C@H](O)C(C)(C)[C@@H]1CC3 | SK-MEL-2 | 25.2 |
| COc1cccc2c1C(=O)c1c(O)c3c(c(O)c1C2=O)C[C@@](O)(C(=O)CO)C[C@@H]3O[C@H]1C[C@H](N)[C@H](O)[C@H](C)O1 | SK-MEL-2 | 0.01 |
| COC(=O)CNC(=O)CC(C)(O)CC(=O)O[C@H]1[C@H](O)C[C@]2(C)C3=C(CC[C@H]2C1(C)C)[C@]1(C)CC[C@H]([C@H](CO)CC[C@@H](O)C(C)(C)O)[C@@]1(C)[C@@H](O)C3 (stereo partly specified) | SK-MEL-2 | 9.06 |

* * *

# System: BV-2
# experimental.protocol: Cytotoxicity against mouse BV2 cells assessed as cell viability by MTT assay
# Format: cell-based

| mol | Activity |
| --- | --- |
| CC(C)(O)[C@H](O)CC[C@@H](CO)[C@H]1CC[C@@]2(C)C3=C(CC(=O)[C@]12C)[C@@]1(C)C[C@@H](O)[C@H](O)C(C)(C)[C@@H]1CC3 | Toxic |
| CC(C)(O)[C@H](O)CC[C@@H](CO)[C@H]1CC[C@@]2(C)C3=C(C[C@H](O)[C@]12C)[C@@]1(C)C[C@@H](O)[C@H](O)C(C)(C)[C@@H]1CC3 | Toxic |
| C[C@H](CC[C@@H](O)C(C)(C)O)[C@H]1CC[C@@]2(C)C3=C(C[C@H](O)[C@]12C)[C@@]1(C)C[C@@H](O)[C@H](O)C(C)(C)[C@@H]1CC3 | Toxic |

* * *

# System: A549
# experimental.protocol: Cytotoxicity against human A549 cells assessed as growth inhibition by SRB assay
# Format: functional, cell-based
readout.label: IC50 (µM)

| molecule | comparison.sign | readout.value |
| --- | --- | --- |
| C[C@H](CC[C@@H](O)C(C)(C)O)[C@H]1CC[C@@]2(C)C3=C(CC(=O)[C@]12C)[C@@]1(C)C[C@@H](O)[C@H](O)C(C)(C)[C@@H]1CC3 | > | 30 |
| COC(=O)CNC(=O)CC(C)(O)CC(=O)O[C@H]1[C@H](O)C[C@]2(C)C3=C(CC[C@H]2C1(C)C)[C@]1(C)CC[C@H]([C@H](C)CC[C@@H](O)C(C)(C)O)[C@@]1(C)[C@@H](O)C3 (stereo partly specified) | > | 30 |
| CC(C)(O)[C@H](O)CC[C@@H](CO)[C@H]1CC[C@@]2(C)C3=C(CC(=O)[C@]12C)[C@@]1(C)C[C@@H](O)[C@H](O)C(C)(C)[C@@H]1CC3 | > | 30 |
| CC(C)(O)[C@H](O)CC[C@@H](CO)[C@H]1CC[C@@]2(C)C3=C(C[C@H](O)[C@]12C)[C@@]1(C)C[C@@H](OC(=O)C[C@@](C)(O)CC(=O)O)[C@H](O)C(C)(C)[C@@H]1CC3 | = | 25.5 |
| C[C@H](CC[C@@H](O)C(C)(C)O)[C@H]1CC[C@@]2(C)C3=C(C[C@H](O)[C@]12C)[C@@]1(C)C[C@@H](O)[C@H](O)C(C)(C)[C@@H]1CC3 | = | 7.85 |
| CC(C)(O)[C@H](O)CC[C@@H](CO)[C@H]1CC[C@@]2(C)C3=C(C[C@H](O)[C@]12C)[C@@]1(C)C[C@@H](O)[C@H](OC(=O)C[C@@](C)(O)CC(=O)O)C(C)(C)[C@@H]1CC3 | > | 30 |
| CC(C)(O)[C@H](O)CC[C@@H](CO)[C@H]1CC[C@@]2(C)C3=C(C[C@H](O)[C@]12C)[C@@]1(C)C[C@@H](O)[C@H](O)C(C)(C)[C@@H]1CC3 | = | 2.37 |
| COC(=O)CNC(=O)CC(C)(O)CC(=O)O[C@H]1[C@H](O)C[C@]2(C)C3=C(CC[C@H]2C1(C)C)[C@]1(C)CC[C@H]([C@H](CO)CC[C@@H](O)C(C)(C)O)[C@@]1(C)[C@@H](O)C3 (stereo partly specified) | > | 30 |
| CC(C)(O)[C@H](O)CC[C@@H](CO)[C@H]1CC[C@@]2(C)C3=CC[C@H]4C(C)(C)[C@@H](O)[C@H](O)C[C@]4(C)C3=C[C@H](O)[C@]12C | = | 4.47 |
| COC(=O)CNC(=O)CC(C)(O)CC(=O)O[C@@H]1C[C@]2(C)C3=C(CC[C@H]2C(C)(C)[C@H]1O)[C@]1(C)CC[C@H]([C@H](C)CC[C@@H](O)C(C)(C)O)[C@@]1(C)[C@@H](O)C3 (stereo partly specified) | > | 30 |
| C[C@H](CC[C@@H](O)C(C)(C)O)[C@H]1CC[C@@]2(C)C3=C(C[C@H](O)[C@]12C)[C@@]1(C)C[C@@H](OC(=O)CC(C)(O)CC(=O)O)[C@H](O)C(C)(C)[C@@H]1CC3 (stereo partly specified) | = | 27.2 |
| COc1cccc2c1C(=O)c1c(O)c3c(c(O)c1C2=O)C[C@@](O)(C(=O)CO)C[C@@H]3O[C@H]1C[C@H](N)[C@H](O)[C@H](C)O1 | = | 0.02 |
| C[C@H](CC[C@@H](O)C(C)(C)O)[C@H]1CC[C@@]2(C)C3=C(C[C@H](O)[C@]12C)[C@@]1(C)C[C@@H](O)[C@H](OC(=O)C[C@@](C)(O)CC(=O)O)C(C)(C)[C@@H]1CC3 | > | 30 |
| COC(=O)CNC(=O)CC(C)(O)CC(=O)O[C@@H]1C[C@]2(C)C3=C(CC[C@H]2C(C)(C)[C@H]1O)[C@]1(C)CC[C@H]([C@H](CO)CC[C@@H](O)C(C)(C)O)[C@@]1(C)[C@@H](O)C3 (stereo partly specified) | > | 30 |
| CC(C)(O)[C@H](O)CC[C@@H](CO)[C@H]1CC[C@@]2(C)C3=C(C[C@H](O)[C@]12C)[C@@]1(C)C[C@@H](O)[C@H](O)C(C)(C)[C@@H]1CC3=O | = | 3.99 |
| CC(C)(O)[C@H](O)CC[C@@H](CO)[C@H]1CC[C@]2(C)[C@]1(C)[C@@H](O)C=C1[C@]23O[C@H]3C[C@H]2C(C)(C)[C@@H](O)[C@H](O)C[C@]12C | = | 6.59 |
